System: NCI-H460
ASSAY_METHOD_TEXT: NCI tumour cell line growth inhibition, 48 h
Active and inactive are the calls of the source. No stated cut-off is given here; in the data, active = GI50 up to about 1.1 µM and inactive = higher. Peptide text beside a SMILES is read from it.
RECORDED_METRIC: GI50

>>> measured_value("CN(CCc1ccccn1)C(=S)N/N=C/c1ccccn1")
"0.299 µM (active)"

Any idea what GI50 was measured for Cc1c(C#N)c(N)n(C2OCC(O)C(O)C2O)c(=S)c1C#N (configuration not stated) ?
> 100 µM (inactive)

Any idea what GI50 was measured for CC(C)(C)[Si](C)(C)OCC1OC(n2ccc(=O)[nH]c2=O)C(O[Si](C)(C)C(C)(C)C)[C@@]12O[C@H]2C(N)=O (some centres not stated) ?
5.28 µM (inactive)

Any idea what GI50 was measured for "CC(C)(c1ccccc1)c1ccc(Oc2ccc3c(c2)-c2nc-3nc3[nH]c(nc4nc(nc5[nH]c(n2)c2ccc(Oc6ccc(C(C)(C)c7ccccc7)cc6)cc52)-c2cc(Oc5ccc(C(C)(C)c6ccccc6)cc5)ccc2-4)c2ccc(Oc4ccc(C(C)(C)c5ccccc5)cc4)cc32)cc1" ?
> 100 µM (inactive)

Any idea what GI50 was measured for "C[C@H]1C(=O)O[C@@H]1[C@H]1COC(C)(C)O1" ?
> 100 µM (inactive)

Any idea what GI50 was measured for CCC(C)C(NC(=O)C(NC(=O)C(CC(N)=O)NC(=O)CN)C(C)O)C(=O)NC(C(=O)NC(C)C(=O)NC(C(=O)NC(CCC(=O)O)C(=O)NC(CC(C)C)C(=O)NC(CC(=O)O)C(=O)NC(C(=O)NC(Cc1ccc(O)cc1)C(=O)N1CCCC1C(=O)O)C(C)O)C(C)C)C(C)C (configuration not stated) (H-GNTIVAVELDTYP-OH; configuration not given here) ?
> 50 µM (inactive)

Any idea what GI50 was measured for "S=c1nc2[nH]c3ccc(Br)cc3c2n[nH]1" ?
63.1 µM (inactive)

====

Test system: RXF 631
ASSAY_METHOD_TEXT: NCI tumour cell line growth inhibition, 48 h
Calls of active or inactive are those of the source. Rule as the data show it: active = GI50 up to about 1.1 µM and inactive = higher.
RECORDED_METRIC: GI50

Some compounds with recorded GI50:
>>> measured_value("COc1cc2c3c(c1OC)/C(=N/OS(=O)(=O)c1ccc(C)cc1)CC3N(S(=O)(=O)c1ccc(C)cc1)CC2 (stereo not given)")
"66.1 µM (inactive)"
>>> measured_value("CCc1cccc(C(C)CC)c1/N=C(/NC(=O)c1ccccc1C(=O)N/C(=N/c1c(CC)cccc1C(C)CC)SC)SC (stereo not given)")
"51.2 µM (inactive)"
>>> measured_value("O=C1C(=O)C(Br)(Br)C(Br)=C1Br")
"37.9 µM (inactive)"
>>> measured_value("CC(=O)N1c2ccccc2N(C(C)=O)C1c1ccc(C2N(C(C)=O)c3ccccc3N2C(C)=O)[nH]1")
"> 100 µM (inactive)"

Below: the item to evaluate.
Record "O=C(/C=C/c1ccccc1O)c1ccccc1Cl" : what is its GI50 with RXF 631?
52.7 µM (inactive)

====

Tested on: HT-29
ASSAY_METHOD_TEXT: NCI tumour cell line growth inhibition, 48 h
Activity calls are given as the source filed them. No stated cut-off is given here; in the data, active = GI50 up to about 1.1 µM and inactive = higher. *1 amine or outer side, *2 acyl side, *3 side chain or, on linkers, in order; H or OH if unused. Where a SMILES comes first, the peptide text is derived from it. [ ]: non-standard residue; d: D form. The star is where a group is joined. ξ: configuration not given here. NMeY = CN[C@@H](Cc1ccc(O)cc1)C(=O)O; Ethylenediamine = C(CN[*:2])N[*:1]; ξNMeL = CNC(CC(C)C)C(=O)O; Cbz = O=C(OCc1ccccc1)*; Lac = C[C@H](O)C(=O)O; ξA = CC(N)C(=O)O
Here, each record is paired with measured GI50 data.

>>> measured_value("CCOC(=O)N1CCc2cc(OC)c(OC)cc2/C1=C/c1ccc(OC)c(OC)c1")
"28.4 µM (inactive)"
>>> measured_value("COc1ccc(/C(Br)=C2\\OC(=O)c3ccccc32)cc1")
"> 10 µM (inactive)"
>>> measured_value("C=C(CCCCC)CN1CCCC1[C@@](C)(O)CC(=O)OCC (some centres undefined)")
"> 100 µM (inactive)"

Below: the item to evaluate.
Any idea what GI50 was measured for COc1ccc(C[C@@H](C(=O)NCCNC(=O)C(CC(C)C)N(C)C(=O)[C@@H]2CCCN2C(=O)[C@H](C)O)N(C)C(=O)[C@@H]2CCCN2C(=O)[C@H](CC(C)C)NC(=O)C(C)NC(=O)OCc2ccccc2)cc1 (some centres undefined) (Cbz-[ξA]LP[NMeY](Me)-{Ethylenediamine-ξNMeL-Pro-Lac}) ?
72.3 µM (inactive)

====

Tested on: HOP-62
ASSAY_METHOD_TEXT: NCI tumour cell line growth inhibition, 48 h
Active and inactive are the calls of the source. Rule as the data show it: active = GI50 up to about 1.1 µM and inactive = higher. Square brackets hold non-standard residues; d marks the D form. Peptide text beside a SMILES is read from it. * marks the point of attachment. ξ: configuration not given here. NMeY = CN[C@@H](Cc1ccc(O)cc1)C(=O)O; Cbz = O=C(OCc1ccccc1)*; ξA = CC(N)C(=O)O
Here, each record is paired with measured GI50 data.

Some molecules with recorded GI50:
>>> measured_value("CC(=O)Oc1cc2c(c3ncccc13)OC(C)(C)C2")
"5.85 µM (inactive)"
>>> measured_value("CC1(C(=O)NCCN(CCNC(=O)C2(C)CC3(C)CC(C)(C2)C(=O)NC3=O)CCNC(=O)C2(C)CC3(C)CC(C)(C2)C(=O)NC3=O)CC2(C)CC(C)(C1)C(=O)NC2=O (stereo not drawn)")
"> 100 µM (inactive)"
>>> measured_value("COc1ccc(C[C@@H](C(=O)N[C@@H](C)C(N)=O)N(C)C(=O)[C@@H]2CCCN2C(=O)[C@H](CC(C)C)NC(=O)C(C)NC(=O)OCc2ccccc2)cc1 (stereo partly drawn) (Cbz-[ξA]LP[NMeY](Me)A-NH2)")
"> 100 µM (inactive)"

Below: the item to evaluate.
Any idea what GI50 was measured for "O=C1c2c(ccc3c2CCCC3)CC12Cc1ccc3c(c1C2=O)CCCC3" ?
> 100 µM (inactive)

====

Test system: OVCAR-4
ASSAY_METHOD_TEXT: NCI tumour cell line growth inhibition, 48 h
Calls of active or inactive are those of the source. Cut-off read from the data, not from the text of the source: active = GI50 up to about 1.1 µM and inactive = higher.
Here, each record is paired with measured GI50 data.

>>> measured_value("CSc1c(CC(=O)O)n(Cc2ccccc2)c2ccccc12")
"61.7 µM (inactive)"
>>> measured_value("CN1C(OCc2ccccc2)c2c(ccc3c2OCO3)C2C=Cc3cc4c(cc3C21)OCO4 (stereo unspecified)")
"1.69 µM (inactive)"
>>> measured_value("CC(=O)c1csc2c1C(=O)c1ccccc1C2=O")
"6.04 µM (inactive)"
>>> measured_value("CS(=O)(=O)O.[Ag]")
"2.33 µM (inactive)"
>>> measured_value("O=C1c2c(c(-c3ccccc3)c(-c3ccccc3)c(-c3ccccc3)c2-c2ccccc2)C(=O)N1c1cccc(Br)c1")
"> 100 µM (inactive)"

Below: the item to evaluate.
Any idea what GI50 was measured for "Cc1cc2c(=O)cc(-c3ccc(Cl)cc3)oc2c(C(=O)O)c1C" ?
> 100 µM (inactive)

====

Tested on: NCI-H23
ASSAY_METHOD_TEXT: NCI tumour cell line growth inhibition, 48 h
Active and inactive are the calls of the source. Cut-off read from the data, not from the text of the source: active = GI50 up to about 1.1 µM and inactive = higher.
RECORDED_METRIC: GI50

Some compounds with recorded GI50:
>>> measured_value("CN(C)/N=C(/c1nc2ccc([N+](=O)[O-])cc2nc1O)C(O)c1ccco1 (stereo unspecified)")
"> 100 µM (inactive)"
>>> measured_value("COc1ccc(N2C(=O)C3c4[nH]c5ccc(Br)cc5c4C4CCC(C(C)(C)C)CC4C3C2=O)cc1 (stereo unspecified)")
"> 100 µM (inactive)"
>>> measured_value("Cc1nn(C(=O)CC(=O)Nc2ccc(Cl)cc2)c(C)c1/N=N/c1ccccc1C(=O)O")
"> 100 µM (inactive)"
>>> measured_value("CC(=O)OC1C[C@@H](C)C2(C[C@H](O)c3ccoc3)C(=O)OC[C@]13C2CCC(O)C31CO1 (stereo partly specified)")
"> 100 µM (inactive)"
>>> measured_value("CCOc1ccccc1C=C1c2ccccc2C(=O)c2ccccc21")
"4.06 µM (inactive)"

Record "CC(=O)Oc1ccccc1-c1cc2ccccc2oc1=O" : what is its GI50 with NCI-H23?
83.8 µM (inactive)

Record "CNS(=O)(=O)NNS(=O)(=O)c1ccccc1" : what is its GI50 with NCI-H23?
> 100 µM (inactive)

Record Cc1c(C#N)c(N)n(C2OCC(O)C(O)C2O)c(=S)c1C#N (stereo unspecified) : what is its GI50 with NCI-H23?
> 100 µM (inactive)

====

Test system: HOP-18
ASSAY_METHOD_TEXT: NCI tumour cell line growth inhibition, 48 h
Active and inactive are the calls of the source. Rule as the data show it: active = GI50 up to about 1.1 µM and inactive = higher.
API: response.call in yes (1) for active, no (0) for inactive

Example entries and their recorded answers appear below.
>>> group("O=C1C=CC(=C(c2ccc(O)cc2)c2ccc(O)cc2)C=C1")
"no (0)"
>>> group("N[C@H](C(=O)O)[C@@H]1CC(Cl)=NO1")
"no (0)"
>>> group("CCOC(=O)N1CCc2cc(OC)c(OC)cc2/C1=C/c1ccc(OC)c(OC)c1")
"no (0)"
>>> group("O=C1c2c(c(-c3ccccc3)c(-c3ccccc3)c(-c3ccccc3)c2-c2ccccc2)C(=O)N1c1cccc(Br)c1")
"no (0)"
>>> group("CN1C(OCc2ccccc2)c2c(ccc3c2OCO3)C2C=Cc3cc4c(cc3C21)OCO4 (stereo not given)")
"no (0)"
>>> group("C=CCO[C@H]1CC[C@@]2(C)C(CC[C@]3(C)C2CC=C2[C@@H]4[C@@H](C)C(C)CC[C@]4(C(=O)O)CCC23C)C1(C)C (stereo not given in full)")
"no (0)"

Please let me know the test result on file for "Nc1ccc(C(=O)Nc2ccccc2N)cc1" .
no (0)

Please let me know the test result on file for "CN(C)CCSc1cccc(-c2cc(-c3cccc(SCCN(C)C)c3)nc(SCCN(C)C)n2)c1" .
yes (1)

Please let me know the test result on file for "CO[C@H]1[C@H](O)[C@H](O[C@H]2CC[C@@]3(C)[C@H](CC[C@@H]4[C@@H]3CC[C@]3(C)[C@@H](C5=CC(=O)OC5)CC[C@]43O)C2)O[C@@H](C)[C@@H]1O" .
yes (1)

Please let me know the test result on file for "Cc1cc2c(=O)cc(-c3ccc(Cl)cc3)oc2c(C(=O)O)c1C" .
no (0)

Please let me know the test result on file for CC(=O)O[C@H]1CC[C@@]2(C)C(=CC[C@@H]3C2CC[C@]2(C)Nc4nc5ccccc5cc4CC32)C1 (stereo not given in full) .
no (0)

Entry source: ChEMBL document CHEMBL1201862
